assay_endpoint: melting point

Can you share its melting point? I mean this compound: CCNc1ccc(-c2c(C#N)c3ccc(OCC)cc3n2C2CCC2)cc1 [Compound 1239]
187 to 193 °C

Can you share its melting point? I mean this compound: CCn1c(-c2ccc(NS(=O)(=O)CC)cc2)c(C#N)c2ccc(OC(F)(F)F)cc21 [Compound 881]
194 to 195 °C

Can you share its melting point? I mean this compound: CCn1c(C#Cc2ccc(F)cc2)c(C#N)c2ccc(OC)cc21 [Compound 67]
132 to 136 °C

Can you share its melting point? I mean this compound: CCn1c(-c2ccc(S(C)(=O)=O)cc2)c(C#N)c2ccc(OC)cc21 [Compound 265]
204 to 206 °C

* * *

Reported melting point is given for each of the following molecules.

Can you share its melting point? I mean this molecule: N#Cc1c(-n2cccc2)[nH]c2cc([N+](=O)[O-])ccc12
304 to 305 °C

Can you share its melting point? I mean this molecule: CCn1c(-c2ccc(N3CCCS3(=O)=O)cc2)c(C#N)c2ccc(OC3CC3)cc21
232 to 234 °C

Can you share its melting point? I mean this molecule: CCn1c(-c2ccc(N(CCOC(C)=O)S(C)(=O)=O)cc2)c(C#N)c2ccc(OC)cc21
153 to 154 °C

Can you share its melting point? I mean this molecule: CCOc1ccc2c(C#N)c(-c3ccc(N4CC(=O)NC4=O)cc3)n(CC)c2c1
257 to 258 °C

Can you share its melting point? I mean this molecule: CCn1c(-c2ccc(OCCNS(C)(=O)=O)cc2)c(C#N)c2ccc(OC)cc21
137 to 143 °C

Can you share its melting point? I mean this molecule: CCOc1ccc(-c2c(C#N)c3ccc(NC(=O)OC(C)(C)C)cc3n2CC)cc1
206 to 207 °C

Can you share its melting point? I mean this molecule: CCn1c(-c2ccc(NS(C)(=O)=O)cc2)c(C#N)c2ccc(OCCN3CCOCC3)cc21
172 to 175 °C

Can you share its melting point? I mean this molecule: CCn1c(N2CCN(C(=O)OC(C)(C)C)CC2)c(C#N)c2ccc(C(F)(F)F)cc21
151 to 153 °C

Can you share its melting point? I mean this molecule: COC(=O)c1cccc(-c2noc(-c3[nH]c4cc(OC)ccc4c3C#N)n2)c1
294 to 295 °C

Can you share its melting point? I mean this molecule: CCn1c(-c2ccc(OCCN)cc2)c(C#N)c2ccc(OC)cc21
106 to 112 °C

Can you share its melting point? I mean this molecule: CCCn1c(-c2ccc(N3CCCS3(=O)=O)cc2)c(-c2cnco2)c2ccc(OC)cc21
217 to 222 °C

Can you share its melting point? I mean this molecule: CCOc1ccc(-c2c(C#N)c3ccc(N)cc3n2CC)cc1
183 to 185 °C

Can you share its melting point? I mean this molecule: CCn1c(-c2ccc(N)cc2)c(C#N)c2ccc(OC)cc21
183 to 185 °C

Can you share its melting point? I mean this molecule: CCn1c(-c2ccc(NS(C)(=O)=O)cc2)c(C#N)c2ccc(OC)cc21
188 to 190 °C

Can you share its melting point? I mean this molecule: CC(C)NC(=O)Nc1ccc(-c2c(C#N)c3ccc(OCCCn4cncn4)cc3n2C2CCC2)cc1
88 to 90 °C

Can you share its melting point? I mean this molecule: CCn1c(C#Cc2ccc(NC(=O)C3CC3)cc2)c(C#N)c2ccc(O)cc21
278 to 284 °C

Can you share its melting point? I mean this molecule: CCn1c(-c2ccc(N(CCO)S(C)(=O)=O)cc2)c(C#N)c2ccc(OC)cc21
198 to 200 °C

* * *

Reported melting point is given for each of the following compounds.

Sample records with melting point:
| chem_smiles | melting point |
| --- | --- |
| CCn1c(-c2ccc(NC(=O)OC)cc2)c(C#N)c2ccc(OC(F)F)cc21 | 177 to 178 °C |
| CCn1c(-c2cccc(O)c2)c(C#N)c2ccc(OC)cc21 | 194 to 199 °C |
| CCn1c(-c2ccc(N(C)S(C)(=O)=O)cc2)c(C#N)c2ccc(OC)cc21 | 170 to 171 °C |
| CCn1cc(-c2cnco2)c2ccc(C(=O)OC)cc21 | 144 to 149 °C |

Can you share its melting point? I mean this compound: CCn1cc(C#N)c2ccc(NC(=O)OC(C)(C)C)cc21
175 to 177 °C

* * *

Reported melting point is given for each of the following compounds.

Sample records with melting point:
| compound | melting point |
| --- | --- |
| CCn1cc(C#N)c2cc(-c3ccsc3)ccc21 | 145 to 146 °C |
| CCn1c(-c2ccc(OCCN=[N+]=[N-])cc2)c(C#N)c2ccc(OC)cc21 | 96 to 99 °C |
| CCOc1ccc2c(C#N)c(-c3ccc(NP(=O)(OCC)OCC)cc3)n(CC)c2c1 | 211 to 212 °C |
| CCOc1ccc2c(C#N)c(-c3ccc(N(CC)CC)cc3)n(C3CCC3)c2c1 | 135 to 141 °C |

Can you share its melting point? I mean this compound: CCOc1ccc2c(C#N)c(-c3ccc(N4C(=O)CNC4=O)cc3)n(CC)c2c1
265 to 267 °C

Can you share its melting point? I mean this compound: CCn1c(-c2ccc(OCCN3CCOCC3)cc2)c(C#N)c2ccc(OC)cc21
138 to 143 °C

Can you share its melting point? I mean this compound: CCCOC(=O)Nc1ccc2c(C#N)cn(-c3ccc(OC)cc3)c2c1
164 to 167 °C

Can you share its melting point? I mean this compound: CCn1c(-c2ccc(NC(C)=O)cc2)c(C#N)c2ccc(OC)cc21
218 to 220 °C

Can you share its melting point? I mean this compound: CCn1c(C#Cc2ccc(NS(C)(=O)=O)cc2)c(C#N)c2ccc(OC)cc21
227 to 233 °C

* * *

Reported melting point is given for each of the following compounds.

| chem_smiles | melting point |
| --- | --- |
| CCn1c(-c2ccc(OCCNC(C)=O)cc2)c(C#N)c2ccc(OC)cc21 | 166 to 172 °C |
| COc1ccc2c(C#N)c(-c3ccc(NC(=O)OC(C)C)cc3)n(C3CC3)c2c1 | 204 to 205 °C |
| CC(C)OC(=O)Nc1ccc(-c2c(C#N)c3ccc(OCCn4cncn4)cc3n2C2CCC2)cc1 | 214 °C |

Kindly review the next compound as well.
Can you share its melting point? I mean this compound: CCn1c(-c2ccc(OCC(=O)N3CC[C@H](O)C3)cc2)c(C#N)c2ccc(OC)cc21
185 to 190 °C

* * *

assay_endpoint: melting point

| molecule | melting point |
| --- | --- |
| CCOc1ccc2c(C#N)c(-c3ccc(NC(=O)OC(C)C4CC4)cc3)n(C3CCC3)c2c1 (racemic) [Compound 1147] | 154 to 158 °C |
| CCOc1ccc2c(C#N)c(-c3ccc(NC(=O)N4CCOCC4)cc3)n(C3CCC3)c2c1 [Compound 1166] | 260 to 266 °C |
| CCn1c(-c2ccc(Nc3nc(-c4ccccc4)nc4ccccc34)cc2)c(C#N)c2ccc(OC)cc21 [Compound 458] | 272 to 273 °C |

Kindly review the next molecule as well.
Can you share its melting point? I mean this molecule: CCn1c(-c2ccc(OCCBr)cc2)c(C#N)c2ccc(OC)cc21 [Compound 253]
121 to 125 °C

* * *

test system: HCV replicon; assay: microbe, parasite or virus in culture; assay type: cell-based, hepatitis C virus; details: Hepatitis C virus, read-out: Replicon IC50 μM
assay_endpoint: IC50

| compound | IC50 |
| --- | --- |
| CCn1cc(C#N)c2ccc(Oc3cnccn3)cc21 | > 2 µM |
| CCOc1ccc(-c2c(C#N)c3ccc(Br)cc3n2CC)cc1 | > 2 µM |
| CCNC(=O)NCCOc1ccc(-c2c(C#N)c3ccc(OC)cc3n2CC)cc1 | > 2 µM |
| CCn1c(-c2ccc(OCC(=O)N3CC[C@H](O)C3)cc2)c(C#N)c2ccc(OC)cc21 | > 2 µM |
| CCn1c(-c2ccc(O)c(NC(=O)CCl)c2)c(C#N)c2ccc(OC)cc21 | 0.5 to 2 µM |

Kindly review the next compound as well.
Can you share its IC50? I mean this compound: CCn1c(C#Cc2ccc(NC(=O)NCCCl)cc2)c(C#N)c2ccc(OC)cc21
0.5 to 2 µM

* * *

Reported melting point is given for each of the following molecules.

Sample records with melting point:
| molecule | melting point |
| --- | --- |
| CCn1c(N2CCN(S(=O)(=O)C3CC3)CC2)c(C#N)c2ccc(C(F)(F)F)cc21 [Compound 842] | 170 to 171 °C |
| CCNC(=O)Nc1cccc(C#Cc2c(C#N)c3ccc(OC)cc3n2CC)c1 [Compound 220] | 219 to 223 °C |
| CCn1c(-c2ccc(N3CCCS3(=O)=O)cc2)c(C#N)c2ccc(OC)cc21 [Compound 84] | 232 to 237 °C |
| CCn1cc(-c2cc(-c3ccc(OC)cc3)on2)c2ccc(OC)cc21 [Compound 116] | 116 to 118 °C |
| CCn1c(C#Cc2ccc(N3CCNC3=O)cc2)c(C#N)c2ccc(OC)cc21 [Compound 166] | 236 to 240 °C |

Can you share its melting point? I mean this molecule: CCOc1ccc(-c2c(C#N)c3ccc(NS(=O)(=O)CC)cc3n2CC)cc1 [Compound 835]
178 to 179 °C

Can you share its melting point? I mean this molecule: CCn1c(-c2ccc(N(C)S(=O)(=O)CCN3CCOCC3)cc2)c(C#N)c2ccc(OC)cc21 [Compound 668]
171 to 174 °C

Can you share its melting point? I mean this molecule: CCOc1ccc2c(C(=O)N(C)C)c(-c3ccc(N4C(=O)C(C)N(C)C4=O)cc3)n(CC)c2c1 (centres unmarked) [Compound 780]
219 to 220 °C
